# Assay remarks: Inhibition of pTACE
I'd appreciate it if you could supply pIC50 values for the items below.
By convention, pIC50 is the negative base-10 log of a molar concentration.

Entry Cc1cc(COc2ccc(C(=O)Nc3ccccc3Cc3c[nH]c(=O)[nH]3)cc2)c2ccccc2n1 — recorded pIC50 = 5.80

The reported pIC50 of the compound Cc1cc(COc2ccc(C(=O)Nc3ccccc3C(=O)c3c[nH]c(=O)[nH]3)cc2)c2ccccc2n1 was 8.05

Looking up Cc1cc(COc2ccc(C(=O)NCC3(C)NC(=O)NC3=O)cc2)c2ccccc2n1 (stereo not drawn) , I see its pIC50 listed as 7.54

In plain terms, Cc1cc(COc2ccc(S(=O)(=O)NCc3n[nH]c(=O)[nH]3)cc2)c2ccccc2n1 has a documented pIC50 of 6.36

// Cc1cc(COc2ccc(C(=O)Nc3ccccc3Cc3n[nH]c(=O)[nH]3)cc2)c2ccccc2n1 : pIC50 value = 7.47

Lab note: measured pIC50 of Cc1cc(COc2ccc(C(=O)Nc3ccccc3-c3[nH]c(=O)[nH]c3O)cc2)c2ccccc2n1 was 7.85

Data point: Cc1cc(COc2ccc(S(=O)(=O)NCC3(C)NC(=O)NC3=O)cc2)c2ccccc2n1 (stereo not drawn) ; pIC50 = 7.43
